test system: HS 578T (breast cancer); assay: NCI-60 SRB cytotoxicity screen; format: cell-based; details: Homo sapiens, single dose 10 μM, read-out: growth inhibition (GI%)
Catalogue of inhibition at 10 µM values
observable: inhibition at 10 µM

| compound | reported measurement |
| --- | --- |
| CCc1cccc2cc(C=CC(=O)c3ccc(OC)cc3)c(Cl)nc12 | < 10% |
| CCc1cccc2cc(C3C=C(c4cc(OC)c(OC)c(OC)c4)NC(=S)N3)c(Cl)nc12 (centres unmarked) | 39.6% |
| CCc1cccc2cc(-c3cc(-c4ccc(Br)cc4)[nH]c(=S)c3C#N)c(Cl)nc12 | < 10% |
| CCc1cccc2cc(C3C=C(c4ccc(Br)cc4)NC(=S)N3)c(Cl)nc12 (centres unmarked) | < 10% |
| CCc1cccc2cc(C3C=C(c4ccc(OC)c(OC)c4)NC(=S)N3)c(Cl)nc12 (centres unmarked) | 12.9% |
| CCc1cccc2cc(C=CC(=O)c3ccc(OC)c(OC)c3)c(Cl)nc12 | < 10% |
| CCc1cccc2cc(C3C=C(c4ccc(OC)cc4)NC(=S)N3)c(Cl)nc12 (centres unmarked) | < 10% |
| CCc1cccc2cc(-c3cc(-c4ccc(Br)cc4)[nH]c(=O)c3C#N)c(Cl)nc12 | < 10% |

====

system: MDA-MB-435 (melanoma); assay: NCI-60 SRB cytotoxicity screen; assay type: cell-based; settings: Homo sapiens, MDA-MB-435, read-out: growth inhibition (GI%);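 note: growth inhibition in percent at a single 10 µM dose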
Catalogue of inhibition at 10 µM values
observable: inhibition at 10 µM

| compound | reported measurement |
| --- | --- |
| CCc1cccc2cc(C=CC(=O)c3ccc(F)cc3)c(Cl)nc12 | < 10% |
| CCc1cccc2cc(-c3cc(-c4ccc(OC)c(OC)c4)[nH]c(=S)c3C#N)c(Cl)nc12 | < 10% |
| CCc1cccc2cc(C3C=C(c4ccc(F)cc4)NC(=S)N3)c(Cl)nc12 (centres unmarked) | < 10% |
| CCc1cccc2cc(-c3cc(-c4ccc(Br)cc4)[nH]c(=S)c3C#N)c(Cl)nc12 | < 10% |
| CCc1cccc2cc(C3C=C(c4ccc(OC)cc4)NC(=S)N3)c(Cl)nc12 (centres unmarked) | < 10% |
| CCc1cccc2cc(C3C=C(c4ccc(OC)c(OC)c4)NC(=S)N3)c(Cl)nc12 (centres unmarked) | < 10% |
| CCc1cccc2cc(C3C=C(c4ccc(Br)cc4)NC(=S)N3)c(Cl)nc12 (centres unmarked) | < 10% |
| CCc1cccc2cc(-c3cc(-c4cc(OC)c(OC)c(OC)c4)[nH]c(=S)c3C#N)c(Cl)nc12 | 24.9% |
| CCc1cccc2cc(-c3cc(-c4ccc(OC)cc4)[nH]c(=O)c3C#N)c(Cl)nc12 | < 10% |
| CCc1cccc2cc(-c3cc(-c4ccc(OC)cc4)[nH]c(=S)c3C#N)c(Cl)nc12 | < 10% |
| CCc1cccc2cc(-c3cc(-c4ccc(F)cc4)[nH]c(=O)c3C#N)c(Cl)nc12 | < 10% |
| CCc1cccc2cc(-c3cc(-c4cc(OC)c(OC)c(OC)c4)[nH]c(=O)c3C#N)c(Cl)nc12 | 56.5% |
| CCc1cccc2cc(-c3cc(-c4ccc(Br)cc4)[nH]c(=O)c3C#N)c(Cl)nc12 | < 10% |
| CCc1cccc2cc(C3C=C(c4cc(OC)c(OC)c(OC)c4)NC(=S)N3)c(Cl)nc12 (centres unmarked) | 43.5% |
| CCc1cccc2cc(C=CC(=O)c3cc(OC)c(OC)c(OC)c3)c(Cl)nc12 | 59.2% |
| CCc1cccc2cc(C=CC(=O)c3ccc(OC)c(OC)c3)c(Cl)nc12 | 17.1% |
| CCc1cccc2cc(-c3cc(-c4ccc(OC)c(OC)c4)[nH]c(=O)c3C#N)c(Cl)nc12 | < 10% |

Reference source for all entries: paper PMC11240139
